system: SF-539 CNS; assay: NCI-60 one-dose screen, 48 h (100 = growth as untreated, 0 = no growth, -100 = all killed); conditions: 10 µM unless noted
The panel holds about 83,000 compounds, 20% with a hit somewhere; the sample as a whole holds those more often.
Give growth for every item shown.
Answers are plain numbers, in %.

Worked set:
INSERT INTO assay_data (compound, assay_readout, unit_abbrev, result) VALUES
  ('COc1ccc(C(=O)NC(=O)Nc2ccc3c(c2)NC(=O)/C3=C\c2[nH]c(C)c(CCC(=O)O)c2C)c(F)c1', 'growth', '%', -5.86),
  ('C=C1C(=O)O[C@H]2[C@H]1CC/C(C(=O)NCCOCCOCC(=O)Nc1ccc(OC)c(C(N)=O)c1O)=C\CC[C@@]1(C)O[C@@H]21', 'growth', '%', 90.7),
  ('COc1ccc(-c2nnc(SCC(=O)Nc3ccc(C(=O)/C=C/c4ccccc4)cc3)o2)cc1OC', 'growth', '%', 95.7),
  ('CCC(N)(C(=O)O)c1ccc(F)cc1 (stereo not given)', 'growth', '%', 109);

Alright, here's another compound for you.
Asked: Entry under review: Cc1nccc2c3ccc(OCc4cn(-c5ccc(Br)cc5)nn4)cc3n(CCCc3ccccc3)c12 . Reported growth?
Given back: -59.8
